Tested On: T. brucei phosphofructokinase (TbPFK) (Trypanosoma brucei brucei)
Construct: made in house; host or cells: Escherichia coli C41 (pET28a, codon optimised gene)
Sequence (O15648 whole entry): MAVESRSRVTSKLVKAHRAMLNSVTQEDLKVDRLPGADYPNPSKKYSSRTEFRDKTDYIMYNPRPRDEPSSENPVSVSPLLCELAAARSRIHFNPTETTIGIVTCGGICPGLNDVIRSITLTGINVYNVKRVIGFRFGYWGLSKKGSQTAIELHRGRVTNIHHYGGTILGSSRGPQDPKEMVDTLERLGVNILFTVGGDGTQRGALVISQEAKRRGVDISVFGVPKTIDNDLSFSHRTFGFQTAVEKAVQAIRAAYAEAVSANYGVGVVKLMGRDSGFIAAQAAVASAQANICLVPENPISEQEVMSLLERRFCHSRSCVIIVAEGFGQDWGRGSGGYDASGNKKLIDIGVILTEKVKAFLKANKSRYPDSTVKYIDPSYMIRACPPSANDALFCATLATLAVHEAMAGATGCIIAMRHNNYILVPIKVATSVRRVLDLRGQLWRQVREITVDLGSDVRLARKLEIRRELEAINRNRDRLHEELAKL
Protocol Text: ADP-Glo assay for measuring PFK inhibition
Assay type: biochemical
Study Conditions: ADP-Glo; mean ± SD; read-out: IC50 (µM) for inhibition of T. brucei phosphofructokinase (PFK IC50)
# IC50 values compiled below

Reference set (3 entries):
Molecule Smiles | Assay Endpoint | Value Measured
CN(C)CCn1ccc2c(ccn2Cc2ccc(Cl)c(Cl)c2)c1=O | IC50 | 0.18 µM
CN(C)CCn1ccc2c(ccn2Cc2ccc(F)c(Br)c2)c1=O | IC50 | 0.2 µM
Clc1ccc(Cn2ccc3cnccc32)cc1Cl | IC50 | 0.46 µM

# next compound below
Notebook entry, T. brucei phosphofructokinase (TbPFK) (Trypanosoma brucei brucei) assay: IC50 of "Clc1ccc(Cn2cnc3cnccc32)cc1Cl" = ? 1.14 µM
